# assaySystem: human Rio1 (Homo sapiens, UniProt Q9BRS2)
# Construct: Human recombinant kinase Rio1 containing residues 134–494 was expressed and purified as previously reported; made in house
# Sequence (Q9BRS2 134-494): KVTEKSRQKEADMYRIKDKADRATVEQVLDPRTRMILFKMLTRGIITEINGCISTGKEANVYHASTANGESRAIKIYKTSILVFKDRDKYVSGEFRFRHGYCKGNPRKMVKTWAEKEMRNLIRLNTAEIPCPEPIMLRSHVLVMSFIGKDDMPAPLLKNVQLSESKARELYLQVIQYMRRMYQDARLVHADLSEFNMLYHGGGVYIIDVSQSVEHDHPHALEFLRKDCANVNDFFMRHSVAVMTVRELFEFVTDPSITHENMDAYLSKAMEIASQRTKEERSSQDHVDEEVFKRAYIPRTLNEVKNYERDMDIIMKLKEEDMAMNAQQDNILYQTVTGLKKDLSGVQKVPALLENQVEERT
# measurementNotes: Rio1 autophosphorylation assay ([γ-32P]ATP)
# Type: biochemical
# setupConditions: IC50 against Rio1 at 0.01 µM ATP, 0.01 µM ATP
parameterMeasured: pIC50
Quick note: pIC50 values are minus log10 of concentrations in mol/L.

**Query** Give pIC50 for Ic1c(I)c(I)c2[nH]cnc2c1I [TIBI, 4,5,6,7-tetraiodobenzimidazole]
**Result** 7.34

====

Collected IC50 values appear next to each entry.
# assaySystem: human Rio1 (Homo sapiens, UniProt Q9BRS2)
# Construct: Human recombinant kinase Rio1 containing residues 134–494 was expressed and purified as previously reported; made in house
# measurementNotes: Rio1 autophosphorylation assay ([γ-32P]ATP)
# Format: biochemical
# setupConditions: 0.5 µM ATP, 37 °C, 15 min, read-out: IC50 (µM) ± SD Rio1
Just the number in µM, nothing appended.

>  <compound>
O=C(O)c1ccc2c(c1)nc(Nc1cccc(Cl)c1)c1ccncc12 [CX-4945, Silmitasertib, reference compound]

>  <IC50 / µM>
0.37

$$$$
>  <compound>
Ic1c(I)c(I)c2[nH]cnc2c1I [TIBI, 4,5,6,7-tetraiodobenzimidazole]

>  <IC50 / µM>
0.09

$$$$
>  <compound>
Brc1c(Br)c(Br)c2[nH]nnc2c1Br [TBB, 4,5,6,7-Tetrabromo-2-azabenzimidazole, reference compound]

>  <IC50 / µM>
1.74

$$$$
>  <compound>
Cc1nc2c(I)c(I)c(I)c(I)c2[nH]1 [K92, 4,5,6,7-tetraiodo-2-methylbenzimidazole]

>  <IC50 / µM>
0.19

$$$$
>  <compound>
Brc1c(Br)c(Br)c2[nH]cnc2c1Br [TBI, 4,5,6,7-tetrabromobenzimidazole]

>  <IC50 / µM>
0.33

$$$$
>  <compound>
CC(CC(=O)O)Sc1nc2c(Br)c(Br)c(Br)c(Br)c2[nH]1 (stereo not shown) [TBSB]

>  <IC50 / µM>
0.65

$$$$
>  <compound>
CN(C)c1nc2c(Br)c(Br)c(Br)c(Br)c2[nH]1 [DMAT, reference compound]

>  <IC50 / µM>
0.19

$$$$
>  <compound>
CC(CC(=O)O)Cn1c(N(C)C)nc2c(Br)c(Br)c(Br)c(Br)c21 (stereo not shown) [TDBB]

>  <IC50 / µM>
2.17

$$$$

**Query** Give IC50 for N#Cc1cn([C@@H]2O[C@H](CO)[C@@H](O)[C@H]2O)c2ncnc(N)c12 [Toyocamycin, toyocamycin, reference compound]
**Result** 3.66

**Query** Give IC50 for Brc1c(I)c(Br)c2nc[nH]c2c1I [K95, 4,6-dibromo-5,7-diiodobenzimidazole]
**Result** 0.29

**Query** Give IC50 for CN(C)c1nc2c(I)c(I)c(I)c(I)c2n1C [TIdiMe]
**Result** 0.24

**Query** Give IC50 for Clc1c(Cl)c(Cl)c2[nH]cnc2c1Cl [TCI, 4,5,6,7-tetrachlorobenzimidazole]
**Result** 1.9

**Query** Give IC50 for CN(C)c1nc2c(Br)c(Br)c(Br)c(Br)c2n1C [1Me-DMAT]
**Result** 0.61
